Where do the numbers come from? From PubChem BioAssay (NCI).

tested on: SR leukemia; test: NCI-60 one-dose screen, 48 h (100 = growth as untreated, 0 = no growth, -100 = all killed); settings: 10 µM
This is part of a sample that, as a whole, favours compounds with a hit. Of some 83,000 tested, about 20% had one in any assay.
Please go through the items and note down their growth.
Numeric only. Scale: %

Given the entry CCOC(=O)c1sc2ncnc(Nc3ccc4c(cnn4C(=O)Nc4ccc(C)c(Cl)c4)c3)c2c1C , report its measured growth. 79.2

Note, next up: Cc1ccccc1N1C(=O)c2cc(S(N)(=O)=O)c(Cl)cc2NC1C (stereo unspecified) 87.1

Note, next up: Cn1cnc([N+](=O)[O-])c1/C=C1\Oc2ccc(Br)cc2C1=O 33.9

Note, next up: O=C(O)c1cc([N+](=O)[O-])ccc1Oc1ccccc1 91

Note, next up: O=C(Nc1cccc2c1CCCC2)c1cc2ccccc2cc1O 18

Note, next up: COc1cc(-c2nc3ccccc3o2)cc(CN2CCCCC2)c1O 31.7

Note, next up: COc1cc(-c2nn(-c3cccc(NC(=O)NCCNS(=O)(=O)c4ccc(Cl)cc4)c3)cc2-c2ccncc2)ccc1Cl 1.18

Note, next up: CCOC(=O)C(C)(c1ccccc1)c1ccccc1 100

Note, next up: COc1ccc(-c2nnc(SCC(=O)Nc3ccc(C(=O)/C=C/c4ccccc4)cc3)n2-c2ccccc2)cc1OC 57.5

Note, next up: O=C(Nc1nc(-c2ccccc2)nc2c1sc(=S)n2-c1ccccc1)C(F)(F)F 89.8

Note, next up: COc1ccc(/C=c2\sc3n(c2=O)C(c2cc(OC)c(OC)c(OC)c2)C=C(c2ccc(OC)c(OC)c2)N=3)cc1OC (stereo unspecified) 91.5

Note, next up: C=CCn1c(SCC(=O)Nc2ccc(C(=O)/C=C/c3ccc(Cl)cc3)cc2)nnc1-c1cc(-c2ccccc2)nc2ccccc12 6.5

Note, next up: O=C(O)c1ccc(-n2cc(CNc3ccc(Oc4ccccc4)cc3)c(-c3ccccc3)n2)cc1 38.6

Note, next up: CCc1cc(Cl)c(OC)c(C(=O)NCC2CCCN2CC)c1O (stereo unspecified) 81.6

Note, next up: CC(=O)[C@H]1CC[C@]2(C)[C@@H]1CC[C@@H]1[C@@]3(C)CC(CCC#N)(CCC#N)C(=O)C(C)(C)[C@@H]3CC[C@]12C 101

Note, next up: CC(=O)/C(=C/c1ccc(Br)cc1)C(=O)c1ccccc1 -16.8

Note, next up: CCc1c2c(nc3ccc(OC(=O)N4CCC(N5CCCCC5)CC4)cc13)-c1cc3c(c(=O)n1C2)COC(=O)[C@]3(O)CC 1.34

Note, next up: CS(=O)(=O)c1nccc(-c2c(-c3ccc(OCCc4ccccc4)cc3)nc3sccn23)n1 88.5

Note, next up: Cc1ccc(C(=O)/C=C/c2ccccc2)s1 88.3

Note, next up: CN(C)CCCOc1ccc(OCCCN(C)C)c2c1C(=O)c1ccccc1C2=O 2.73

Note, next up: O=C(O)c1cn(C2CC2)c2cc(N3CCN(C(=O)c4cc(-c5ccc(Cl)cc5)nc5ccccc45)CC3)c(F)cc2c1=O 47.4

Note, next up: CCCCN(CCCC)C(=O)[C@H](CC)[C@@H]1CC[C@@H](C)[C@@H]([C@H](C)[C@@H](O)[C@@H](C)C(=O)[C@H](CC)C2O[C@]3(C=C[C@@H](O)[C@]4(CC[C@@](C)([C@H]5CC[C@](O)(CC)[C@H](C)O5)O4)O3)[C@H](C)C[C@@H]2C)O1 (stereo partly specified) 27

Note, next up: COc1ccc(Cl)cc1Nc1nc(C(F)(F)F)ccc1C(=O)N/N=C/c1ccc(Cl)cc1 -0.906

Note, next up: COc1ccc(-c2nc(-c3nc4ccc(C)cc4[nH]3)cc3c2[nH]c2ccccc23)cc1 10.2

Note, next up: COc1nc2c(c(=O)n1C)CN(c1ccccc1)C(=O)C(C)N2 (stereo unspecified) 93.6

Note, next up: O=C(Nc1ccc(NS(=O)(=O)c2ccc(F)cc2)cc1)C12CC3CC(CC(C3)C1)C2 75.5

Note, next up: C[C@]12CCC3c4ccc(O)cc4C[C@@H](CCCCCCCCCS(=O)CCCC(F)(F)C(F)(F)F)C3C1CC[C@@H]2O (stereo partly specified) 44.6

Note, next up: CC(=O)N[C@H](C(=O)N[C@@H](CCCNC(=N)N)C(=O)N[C@@H](CCCCN)C(=O)N[C@@H](CCCNC(=N)N)C(=O)NC(C(=O)N[C@@H](CC(C)C)C(=O)N[C@@H](CCCNC(=N)N)C(=O)N[C@@]1(C)CCC/C=C\CCC[C@@](C)(C(=O)N[C@@H](CCCNC(=N)N)C(=O)N[C@@H](CCC(=O)O)C(=O)N[C@@H](CC(C)C)C(=O)N[C@H](C(=O)N[C@@H](CCC(=O)O)C(N)=O)C(C)C)NC(=O)[C@H](CCC(N)=O)NC(=O)[C@H](CC(C)C)NC(=O)[C@H](CC(C)C)NC1=O)[C@@H](C)O)C(C)C (stereo partly specified) 14

Note, next up: Cc1ccc(-n2nnnc2N)c(C)c1 112

Note, next up: NC1=CC(=O)C(=O)c2cccnc21 86

Note, next up: COc1cc(-c2nn(-c3cccc(NC(=O)CCN4CCN(Cc5ccccc5)CC4)c3)cc2-c2ccncc2)ccc1Cl -28.5

Note, next up: COc1ccc(-c2nn(-c3cccc(Cl)c3)cc2-c2cc(-c3cccs3)[nH]c(=S)n2)cc1 32.6

Note, next up: COc1cc(Cc2cc(-c3ccccc3)n[nH]c2=O)cc(OC)c1OC 25

Note, next up: Cc1ccc(NC(=S)NNC(=S)Nc2ccc(C)cc2)cc1 27.4

Note, next up: OCC1OC(n2ccc3c(NO)ncnc32)C(O)C1O (stereo unspecified) -30.2

Note, next up: O=[N+]([O-])c1cc(Cl)cc(Cl)c1O 103
